Cited source for all entries: the supplement of paper PMC9942255

Test system: Bacillus subtilis DB104 (SP-AmyQ fusion secretion)
Assay: AmyQ secretion efficiency, weighted average sort bin (1 = best secretion, 10 = worst) (bin number (weighted average, 1-10)); higher = lower secretion efficiency
Property: AmyQ secretion efficiency; scope: individual sequences
Test Readout: AmyQ secretion efficiency

| Sequence Entry | Numeric Result |
| --- | --- |
| MRHKIIGRYQTSSGQIIIGNMIGGGGGSEATSK | 7.7 |
| MKKAAAVLLSLGLVFVGFSYGAGHVAEAKTK | 1.71 |
| MTTKFTALAVFLKEHTQASLL | 6.23 |
| MKRLLSTLLIGIMLLTFAPSMFAKQD | 2.35 |
| MKRKRLFIFSAILTLSIFAPNETFAQTA | 1.57 |
| MKLAKRVSALTPSTTLAIEEEEAKAKEL | 7.01 |
| MKLSVKIAGVLTVAAAAMTAKMYATAADD | 6.81 |
| MTKRGIQAFAGGIILATYLTDEDQAAAV | 7.21 |
| MNKPTKLFSTLALAAGMTEDEAGGAGTIHAQQP | 2.79 |
| MPYLKRVLLLLVTGLFMSLFAVTATRSAQTG | 3.54 |

###

Test system: Bacillus subtilis DB104 (SP-AmyQ fusion secretion)
Test: AmyQ secretion efficiency, weighted average sort bin (1 = best secretion, 10 = worst) (bin number (weighted average, 1-10)); higher = lower secretion efficiency
Listed next: entries and their corresponding AmyQ secretion efficiency.
Test Readout: AmyQ secretion efficiency

| Sequence Entry | Result |
| --- | --- |
| MTMLRKKGRWSLLLCIIPLFAFTVIASGKEV | 6.17 |
| MKKTIMSFVAVAALSTTAFGAHPTASAKEI | 2.53 |
| MKRYYVRMTLPLLIVCLAFSSFSASARAASE | 2.74 |
| MKKLVLCVSILAVILSGVALYQLS | 4.11 |
| MFNRLFRVCFLAALIMAFVFFIVFTLPNSVYAQKP | 2.03 |
| MRHKIITFILAVVVIIIIGNMIGGGGGQEATSK | 6.41 |
| MKKRITYSLLALLAVVAFAFLTDSSKAKAAEA | 3.06 |
| MKRFSTAYKQQRQQCSAAVFLIGAPSRALGAEV | 7.51 |
| MFNRLFRVCFLAALIMAFFLGNSVYAQKP | 2.37 |
| MKKLLAAGIIGLLTVSIASPAFAAEK | 2.44 |
| MTKLKMLSMLTVMIASLFIFSSQMLAVQY | 4.6 |
| MKKRITYSLLALLAVVAFAFTDSSKAKAAEE | 2.71 |
| MLKKKWMVGLLAGCLAAGGFSYNAFATEE | 3.49 |
| MKKGIIRFLLVSFVLFFALKKRITGVQAAPA | 6.43 |
| MKKRLIGFLVLVPALIEDEEELIEANKK | 7.82 |
| MKRTWNVCLTALLSVLLVAGSVPFHGEAKKP | 2.79 |
| MKIRKILLSSALSFGMLISAVPGLAAGT | 3.97 |
| MNKKYFVLIVCIIFTSALFPTRRKKKRVTAAQG | 8.37 |
| MRKNRILALFVLSLGLLSFMVTPSSTVSAASK | 2.01 |
| MKKRLIAPMLLSAASLAFFAMSGSIQAAAY | 6.12 |
| MKKWMASQKKSTQVLLCLMVPQQIQGASS | 7.24 |
| MLCVMMLLFSAIASFPVSGQAKDQ | 5.05 |
| MKKCLLFLTTIALILSLSTTAFAKNT | 1.16 |
| MKTKTLFIFSAILTLSIFAPNETFARRR | 2.28 |
| MRPQFPLILSAVLFLSCFFGARQTEASASKR | 4.77 |
| MRKRRTIFAFLTGLMMFGTITAASASPD | 4.74 |
| MKKWMAGLFLAAAVLLCLMIQGASS | 3.95 |
| MKIRKILLSSALSFGMLRKRVPALAAGT | 6.53 |
| MKRQRLLVSLRVWMVFLMNWVTPDRKTAAAAVY | 6.95 |
